system: foxtail, giant (giant foxtail, Setaria faberii); assay: Test A greenhouse herbicide test, pre- and postemergence; type: in vivo; conditions: Preemergence, 500 g ai/ha; 0 to 100 scale where 0 is no effect and 100 is complete control
Readings of Plant response rating, Foxtail, Giant for the listed compounds
Respond using a number only.

1) COC(=O)Oc1c(C)nn(C)c(=O)c1-c1ccc(Br)c2ccccc12 ... 90
2) COC(=O)Oc1c(C)nn(C)c(=O)c1-c1c(C)sc2ccc(C)cc12 ... 90
3) Cc1ccc2ccc(Cl)cc2c1-c1c(O)c(C)nn(C)c1=O ... 100
4) Cc1ccc2oc(C)c(-c3c(O)c(C(C)C)nn(C)c3=O)c2c1 ... 0
5) COC(=O)Oc1c(C)nn(C)c(=O)c1-c1c(C(F)(F)F)ccc2ccccc12 ... 90
6) Cc1ccc2ccccc2c1-c1c(OC(=O)OC(C)C)c(C)nn(C)c1=O ... 100
7) CC(=O)Oc1c(C)nn(C)c(=O)c1-c1c(C)cc(C)c2ccccc12 ... 80
8) Cc1ccc2sc(Br)c(-c3c(O)c(C)nn(C)c3=O)c2c1 ... 90

Data request: Hello, please tell me recorded Plant response rating, Foxtail, Giant for this one: `Cc1cc(C)c2sc(C)c(-c3c(OC(=O)N4CCOCC4)c(C)nn(C)c3=O)c2c1`
Data returned: 10
